# Tested on: SEM cells
# PROTOCOL NOTES: cell viability relative to DMSO control; higher = less cytotoxic
# EXPERIMENTAL PARAMETERS: HPLM + 10% dialyzed FBS; 48 h; 0.0211 µM
MEASURED PROPERTY: cell viability (%)
Please respond with the number in % and leave the unit unwritten.

Past entries and their recorded results:
- COMPOUND: "CC(C)[C@@H](N(CCCN)C(=O)C1=CC=C(C)C=C1)C/2=N/C3=CC(=CC=C3C(=O)N2CC4=CC=CC=C4)Cl"
  UNIT INFO: "%"
  cell viability: 19.5
- COMPOUND: "CC(N[C@H]1C[C@@H]1c1ccccc1)c1ccc2c(c1)OCCO2 (stereo not given in full)"
  UNIT INFO: "%"
  cell viability: 122
- COMPOUND: "C\\C1=C\\C(=O)OC2=C1C=CC(=C2)O"
  UNIT INFO: "%"
  cell viability: 119
- COMPOUND: "CC(C)n1c(/C=C/[C@H](O)C[C@H](O)CC(=O)O)c(-c2ccc(F)cc2)c2ccccc21"
  UNIT INFO: "%"
  cell viability: 107

// moving on: another record for cell viability
In: What is its cell viability for SEM cells? Entry: CCc1cncnc1N1CCN(Cc2nc3cc(C(F)(F)F)ccc3[nH]2)CC1
Out: 101

====

# Test system: P12-Ichikawa
# PROTOCOL NOTES: cell viability relative to DMSO control; higher = less cytotoxic
# EXPERIMENTAL PARAMETERS: RPMI 5 mM glucose + 10% dialyzed FBS; 48 h; 46.1 µM
MEASURED PROPERTY: cell viability (%)
Please respond with the number in % and leave the unit unwritten.

- COMPOUND STRUCTURE STRING: "CC(C)(C)c1cc(NC(=O)Nc2ccc(-c3cn4c(n3)sc3cc(OCCN5CCOCC5)ccc34)cc2)no1"
  UNIT INFO: "%"
  cell viability: 88.5

In: Which value of cell viability has been reported for OC1=CC=C(C=C1)\C2=C\OC3=C(C=CC(=C3)O)C2=O in the records?
Out: 88

In: Which value of cell viability has been reported for CC\1=C/C=C\C=[N]1[Pt](N)(Cl)Cl in the records?
Out: 91.4

====

# System: SEM cells
# PROTOCOL NOTES: AUC of viability dose-response curve (% viability x log10 dose units); higher = less sensitive
# EXPERIMENTAL PARAMETERS: HPLM + 10% dialyzed FBS; 48 h
MEASURED PROPERTY: AUC of viability dose-response curve

Past entries and their recorded results:
- MOLECULE: "C/C=C1\\NC(=O)[C@H]2CSSCC/C=C\\[C@H](CC(=O)N[C@H](C(C)C)C(=O)N2)OC(=O)[C@H](C(C)C)NC1=O"
  AUC of viability dose-response curve: 166
- MOLECULE: "CCCC1=NC(=C2[N]1NC(=N\\C2=O)/C3=CC(=CC=C3OCC)[S+]([O-])(=O)N4CCN(CC)CC4)C"
  AUC of viability dose-response curve: 417
- MOLECULE: "CN(c1ncccc1CNc1nc(Nc2ccc3c(c2)CC(=O)N3)ncc1C(F)(F)F)[S+](C)(=O)[O-]"
  AUC of viability dose-response curve: 362
- MOLECULE: "C[C@H](NC(=O)/C(C#N)=C/c1cccc(Br)n1)c1ccccc1"
  AUC of viability dose-response curve: 336
- MOLECULE: "Cn1cc(/C=C/C(=O)c2cccc(F)c2)cc1/C=C/C(=O)NO"
  AUC of viability dose-response curve: 474
- MOLECULE: "FC(F)(F)c1ccc(/C=C/c2nc(COc3ccc(CCCCn4ccnn4)cc3)co2)cc1"
  AUC of viability dose-response curve: 445
- MOLECULE: "CC(C)NCC(O)COc1ccc(COCCOC(C)C)cc1 (stereo unspecified)"
  AUC of viability dose-response curve: 468
- MOLECULE: "CNC1CCC(N(Cc2cccc(-c3ccncc3)c2)C(=O)c2sc3ccccc3c2Cl)CC1 (stereo unspecified)"
  AUC of viability dose-response curve: 310

// moving on: another record for AUC of viability dose-response curve
In: Which value of AUC of viability dose-response curve has been reported for COc1ccc(-c2cc3nccn3c(Nc3ncccc3C(N)=O)n2)cc1OC in the records?
Out: 380

====

# System: NOMO1
# PROTOCOL NOTES: cell viability relative to DMSO control; higher = less cytotoxic
# EXPERIMENTAL PARAMETERS: HPLM + 10% dialyzed FBS; 48 h; 0.000781 µM
MEASURED PROPERTY: cell viability (%)
Please respond with the number in % and leave the unit unwritten.

Past entries and their recorded results:
- COMPOUND: "CC(=O)O.Cc1c(-c2ccc(O)cc2)n(Cc2ccc(OCCN3CCCCCC3)cc2)c2ccc(O)cc12"
  cell viability, %: 95.5
- COMPOUND: "O=NN(CCCl)C(=O)NC1CCCCC1"
  cell viability, %: 91.4
- COMPOUND: "C[C@H]1[C@H](NC(=O)/C(=N/OC(C)(C)C(=O)O)c2csc(N)n2)C(=O)N1[S+](=O)([O-])O"
  cell viability, %: 98.5
- COMPOUND: "COc1cccc2cc(-c3nc(C4CCC(C(=O)O)CC4)n4ncnc(N)c34)[nH]c12 (stereo not drawn)"
  cell viability, %: 116
- COMPOUND: "Cc1c(CCOc2ccc(C(=O)O)cc2)c2cc(Cl)ccc2n1C(c1ccccc1)c1ccccc1"
  cell viability, %: 119

In: Which value of cell viability has been reported for CC\1=C(C(\N=C(/N1)C2=CC(=NC=C2)Cl)C3=C(F)C=C(Cl)C=C3)/C(=O)NC4=C(F)C=C5[NH]N=CC5=C4 (stereo not drawn) in the records?
Out: 85.8

In: Which value of cell viability has been reported for CC(=O)Oc1ccccc1C(=O)O in the records?
Out: 106

In: Which value of cell viability has been reported for CC(NC1=CC=CC=C1)C\2=C\C(=C/N3C(=O)\C=C(/N=C23)N4CCOCC4)C (stereo not drawn) in the records?
Out: 91.6

====

# Test system: P12-Ichikawa
# PROTOCOL NOTES: cell viability relative to DMSO control; higher = less cytotoxic
# EXPERIMENTAL PARAMETERS: HPLM + 10% dialyzed FBS; 48 h; 5.12 µM
MEASURED PROPERTY: cell viability (%)
Please respond with the number in % and leave the unit unwritten.

In: Which value of cell viability has been reported for CN(CC#C)C/C1=C/C2=CC=CC=C2OC3=CC=CC=C13 in the records?
Out: 84.1

====

# Tested on: P12-Ichikawa
# PROTOCOL NOTES: cell viability relative to DMSO control; higher = less cytotoxic
# EXPERIMENTAL PARAMETERS: RPMI 5 mM glucose + 10% FBS; 48 h; 1.71 µM
MEASURED PROPERTY: cell viability (%)
Please respond with the number in % and leave the unit unwritten.

- COMPOUND STRUCTURE STRING: "C[C@H](O)[C@H]1[C@@H]2[C@H](C)C(=C(\\N2C1=O)C(O)=O)/S[C@@H]3CN[C@H](CN[S+](N)([O-])=O)C3"
  ASSAYED SYSTEM: "P12-Ichikawa"
  UNIT INFO: "%"
  cell viability: 111
- COMPOUND STRUCTURE STRING: "CC1=CC=CC=C1N2\\C(=N/C3=C(C(=CC=C3)C)C2=O)C[N]4C=NC5=C4N=CN=C5N"
  ASSAYED SYSTEM: "P12-Ichikawa"
  UNIT INFO: "%"
  cell viability: 81.2

// moving on: another record for cell viability
In: Which value of cell viability has been reported for COC1=CC2=NC=CC(=C2C=C1)OC3=CN=C(NC(=O)C/4=C(C)/N(CC(C)(C)O)N(C4=O)C5=CC=CC=C5)C=C3 in the records?
Out: 90.5

====

Collected cell viability values appear next to each entry.
# System: P12-Ichikawa
# PROTOCOL NOTES: cell viability relative to DMSO control; higher = less cytotoxic
# EXPERIMENTAL PARAMETERS: HPLM + 10% dialyzed FBS; 48 h; 0.000781 µM
Please respond with the number in % and leave the unit unwritten.

In: Which value of cell viability has been reported for CC[C@H](CC[C@@H](C)[C@H]1CC[C@H]2[C@@H]3C\C=C/4C[C@@H](O)CC[C@]4(C)[C@H]3CC[C@]12C)C(C)C in the records?
Out: 117

In: Which value of cell viability has been reported for CN(C)c1ccc(O)c2c1C[C@H]1C[C@H]3[C@H](N(C)C)C(O)=C(C(N)=O)C(=O)[C@@]3(O)C(O)=C1C2=O in the records?
Out: 109

In: Which value of cell viability has been reported for OC(=O)C1=CC=C(NC2=NC3=C(C\N=C(/C4=CC(=CC=C34)Cl)C5=C(F)C=CC=C5F)C=N2)C=C1 in the records?
Out: 93.9

In: Which value of cell viability has been reported for CN\1C(=O)/C(=C(\N=C1N2CCCC[S+]2([O-])=O)C(=O)NCC3=CC=C(F)C=C3)O in the records?
Out: 124

In: Which value of cell viability has been reported for O=NN(CCCl)C(=O)NCCCl in the records?
Out: 87

In: Which value of cell viability has been reported for OC1=CC=C(C=C1)\C2=C\OC3=C(C=CC(=C3)O)C2=O in the records?
Out: 112
